Lab note: pIC50 readings collected with Avi-tagged FL MALT-1 (Homo sapiens (Human), UniProt Q9UDY8) for the following compounds.
Sequence (Q9UDY8 whole entry): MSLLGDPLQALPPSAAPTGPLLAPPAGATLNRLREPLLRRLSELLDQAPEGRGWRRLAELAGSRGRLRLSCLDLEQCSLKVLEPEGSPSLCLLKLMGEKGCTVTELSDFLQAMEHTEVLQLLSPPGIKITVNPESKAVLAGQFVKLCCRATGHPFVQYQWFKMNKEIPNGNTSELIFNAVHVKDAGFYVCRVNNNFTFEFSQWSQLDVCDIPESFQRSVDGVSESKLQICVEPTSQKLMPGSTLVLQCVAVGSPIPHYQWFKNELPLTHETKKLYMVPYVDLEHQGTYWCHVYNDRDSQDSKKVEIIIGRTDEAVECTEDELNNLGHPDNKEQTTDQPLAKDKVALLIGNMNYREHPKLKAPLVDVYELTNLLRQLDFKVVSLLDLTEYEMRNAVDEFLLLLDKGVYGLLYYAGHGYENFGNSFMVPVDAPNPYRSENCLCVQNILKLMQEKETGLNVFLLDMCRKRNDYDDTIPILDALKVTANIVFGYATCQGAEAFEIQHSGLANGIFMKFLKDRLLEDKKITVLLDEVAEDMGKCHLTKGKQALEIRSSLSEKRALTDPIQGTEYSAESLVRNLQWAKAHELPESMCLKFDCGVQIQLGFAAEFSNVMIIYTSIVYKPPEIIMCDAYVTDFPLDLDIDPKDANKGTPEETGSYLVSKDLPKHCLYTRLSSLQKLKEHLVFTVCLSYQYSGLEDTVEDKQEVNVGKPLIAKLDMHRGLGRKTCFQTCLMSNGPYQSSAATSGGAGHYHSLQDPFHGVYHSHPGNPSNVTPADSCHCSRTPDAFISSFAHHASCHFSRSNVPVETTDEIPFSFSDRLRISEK
pIC50: −log10 of the molar value.

Example entries and their recorded answers appear below.
• CCc1ccc2cnn(C)c2c1NS(=O)(=O)c1cnn(-c2ccnc(OC(F)(F)F)c2)c1 = 5.60 to 6.00
• COc1ncc2cnn(C)c2c1NS(=O)(=O)c1cnn(-c2cc(N3CCOCC3)ccn2)c1 = < 5.60
• COc1ccc2cnn(C)c2c1NS(=O)(=O)c1cnn(-c2cnn3c2COCCC3)c1 = < 5.60
• COC(C)c1ccnc(-n2cc(S(=O)(=O)Nc3cccc4cnn(C)c34)cn2)c1 (stereo not shown) = < 5.60
• COc1ccc2cnn(C)c2c1NS(=O)(=O)c1cnn(-c2cc(N3CCCCC3)ccn2)c1 = 5.60 to 6.00
• C[C@@H](O)c1ccnc(-n2cc(S(=O)(=O)Nc3cccc4cnn(C)c34)cn2)c1 = < 5.60
• Cn1ncc2cccc(NS(=O)(=O)c3cnn(-c4cc(C5=CCOC5)ccn4)c3)c21 = < 5.60
• Cn1ncc2cccc(NS(=O)(=O)c3cnn(-c4cnn5c4OCCC5)c3)c21 = < 5.60
• CC[C@@](C)(O)c1ccnc(-n2cc(S(=O)(=O)Nc3c(OC)ccc4cnn(C)c34)cn2)c1 = 5.60 to 6.00
• Cn1ncc2cccc(NS(=O)(=O)c3cnn(-c4cc(N5CC(C)(F)C5)ccn4)c3)c21 = < 5.60

What value of pIC50 has been reported for the following compound? `COc1ccc2cnn(C)c2c1NS(=O)(=O)c1cnn(-c2cc(N3CC(F)(F)C3)ccn2)c1` 5.60 to 6.00

What pIC50 value was documented for this compound, `Cc1n[nH]c2cccc(NS(=O)(=O)c3cnn(-c4cc(C5(O)CCCC5)ccn4)c3)c12` ? < 5.60

Which pIC50 value is on record for `Cn1ncc2cccc(NS(=O)(=O)c3cnn(-c4cnn5c4COCC5)c3)c21` ? < 5.60

Could you share which pIC50 value was measured for `Cn1ncc2cncc(NS(=O)(=O)c3cnn(-c4cc(C(C)(F)F)ccn4)c3)c21` ? < 5.60

Entry `CC(=O)N1CC(O)(c2ccnc(-n3cc(S(=O)(=O)Nc4cccc5cnn(C)c45)cn3)c2)C1` : reported pIC50 = ? < 5.60

Given `COc1ccc2cnn(C)c2c1NS(=O)(=O)c1cn(-c2cc(C(F)(F)F)ccn2)nc1C` , state its recorded pIC50. ≥ 6.40

---

experimental_system: Avi-tagged FL MALT-1 (Homo sapiens (Human), UniProt Q9UDY8)
property_name: IC50

As a guide, the following entries are already answered.
* COc1ncc2cnn(C)c2c1NS(=O)(=O)c1cnn(-c2cc(N3CCC4(CC4)C3)ccn2)c1 | > 2.5 µM
* Cc1n[nH]c2cccc(NS(=O)(=O)c3cnn(-c4ccc(C5CC5)cn4)c3)c12 | > 2.5 µM

Query for Avi-tagged FL MALT-1 (Homo sapiens (Human), UniProt Q9UDY8): what IC50 does the record show for `CC(=O)N1CC(F)(c2ccnc(-n3cc(S(=O)(=O)Nc4cccc5cnn(C)c45)cn3)c2)C1` ? > 2.5 µM

Item COC1CC(c2ccnc(-n3cc(S(=O)(=O)Nc4cccc5cnn(C)c45)cn3)c2)C1 (stereo not shown) with Avi-tagged FL MALT-1 (Homo sapiens (Human), UniProt Q9UDY8) - IC50? > 2.5 µM

Request: IC50, test system Avi-tagged FL MALT-1 (Homo sapiens (Human), UniProt Q9UDY8), entry Cn1ncc2cccc(NS(=O)(=O)c3cnn(-c4cc(C5(F)CC(F)C5)ccn4)c3)c21 (stereo not shown) [Compound I-366] > 2.5 µM

What is its IC50 for Avi-tagged FL MALT-1 (Homo sapiens (Human), UniProt Q9UDY8)? Entry: `COc1ccc2cnn(C)c2c1NS(=O)(=O)c1cnn(-c2cc(N3CCCCCC3)ccn2)c1` > 2.5 µM

Item: `COc1ncc2cnn(C)c2c1NS(=O)(=O)c1cnn(-c2cc(N3CCCC3)ccn2)c1` Test system: Avi-tagged FL MALT-1 (Homo sapiens (Human), UniProt Q9UDY8) Read-out: IC50 Value: ? 0.4 to 1 µM
